molecular target: CRBN-DDB1 (Homo sapiens, UniProt Q96SW2); test: HTRF binding of compounds to CRBN
Sequence (Q96SW2 whole entry): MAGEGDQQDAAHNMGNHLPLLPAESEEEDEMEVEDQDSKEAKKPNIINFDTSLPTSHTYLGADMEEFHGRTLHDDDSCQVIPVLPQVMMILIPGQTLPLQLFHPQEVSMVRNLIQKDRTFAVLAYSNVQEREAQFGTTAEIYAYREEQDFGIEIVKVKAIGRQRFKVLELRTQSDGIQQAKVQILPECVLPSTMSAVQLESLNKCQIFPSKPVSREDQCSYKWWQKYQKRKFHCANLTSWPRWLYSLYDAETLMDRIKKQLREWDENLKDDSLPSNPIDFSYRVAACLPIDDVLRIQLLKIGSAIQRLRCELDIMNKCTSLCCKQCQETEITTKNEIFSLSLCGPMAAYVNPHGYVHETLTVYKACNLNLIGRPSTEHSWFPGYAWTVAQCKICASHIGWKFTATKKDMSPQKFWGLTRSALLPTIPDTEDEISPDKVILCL
Sequence (Q16531 whole entry partner): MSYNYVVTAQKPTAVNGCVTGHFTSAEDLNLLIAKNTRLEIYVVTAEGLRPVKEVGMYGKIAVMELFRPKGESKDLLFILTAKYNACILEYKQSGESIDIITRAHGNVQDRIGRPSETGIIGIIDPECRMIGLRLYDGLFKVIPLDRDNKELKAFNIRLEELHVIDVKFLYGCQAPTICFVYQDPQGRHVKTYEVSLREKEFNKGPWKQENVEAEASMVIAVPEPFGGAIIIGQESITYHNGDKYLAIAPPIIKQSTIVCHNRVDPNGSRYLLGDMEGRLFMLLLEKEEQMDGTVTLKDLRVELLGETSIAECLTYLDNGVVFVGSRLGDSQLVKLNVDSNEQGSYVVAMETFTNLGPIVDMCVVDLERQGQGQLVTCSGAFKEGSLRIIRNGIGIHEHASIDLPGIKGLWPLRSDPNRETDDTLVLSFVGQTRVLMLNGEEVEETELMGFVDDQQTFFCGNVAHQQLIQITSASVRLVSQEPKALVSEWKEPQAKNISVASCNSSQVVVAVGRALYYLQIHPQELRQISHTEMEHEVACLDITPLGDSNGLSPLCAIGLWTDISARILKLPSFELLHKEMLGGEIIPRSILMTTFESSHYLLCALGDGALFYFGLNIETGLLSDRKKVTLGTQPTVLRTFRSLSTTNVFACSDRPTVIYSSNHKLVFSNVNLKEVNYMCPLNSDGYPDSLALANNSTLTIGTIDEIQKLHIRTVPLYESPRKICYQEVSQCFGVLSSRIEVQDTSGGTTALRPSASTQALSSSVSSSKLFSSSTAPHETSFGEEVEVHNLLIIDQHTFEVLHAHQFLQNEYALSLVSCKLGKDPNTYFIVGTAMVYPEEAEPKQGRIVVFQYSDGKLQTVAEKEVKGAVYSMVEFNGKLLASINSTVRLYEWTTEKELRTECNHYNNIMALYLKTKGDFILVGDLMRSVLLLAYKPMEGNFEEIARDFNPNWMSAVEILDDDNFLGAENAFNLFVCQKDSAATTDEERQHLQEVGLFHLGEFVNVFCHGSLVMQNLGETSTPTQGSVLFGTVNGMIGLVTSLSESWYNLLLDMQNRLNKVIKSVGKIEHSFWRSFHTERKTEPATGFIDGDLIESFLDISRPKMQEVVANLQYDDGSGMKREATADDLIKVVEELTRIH
Recorded IC50 for the following compounds

Look over these answered cases.
>  <compound>
Cc1c(Cl)ccc(NC(=O)OCc2ccc3c(c2)C(=O)N(C2CCC(=O)NC2=O)C3)c1F (centres unmarked)

>  <result>
100 to 1000 nM

$$$$
>  <compound>
O=C1CCC(N2Cc3ccc(COC(=O)Nc4cccc5c4OCC5)cc3C2=O)C(=O)N1 (centres unmarked)

>  <result>
100 to 1000 nM

$$$$
>  <compound>
O=C1CCC(N2Cc3ccc(COC(=O)NC4CN(Cc5ccccc5)C4)cc3C2=O)C(=O)N1 (centres unmarked)

>  <result>
100 to 1000 nM

$$$$

Quote IC50 reported for Cc1cc2c(c(NC(=O)OCc3ccc4c(c3)C(=O)N(C3CCC(=O)NC3=O)C4)c1)OCC2 (centres unmarked) please.
100 to 1000 nM

Quote IC50 reported for O=C1CCC(N2Cc3ccc(COC(=O)NC45CC(N6CCCCC6)(C4)C5)cc3C2=O)C(=O)N1 (centres unmarked) please.
100 to 1000 nM

Quote IC50 reported for Cc1cc(NC(=O)OCc2ccc3c(c2)C(=O)N(C2CCC(=O)NC2=O)C3)cc(C#N)c1C (centres unmarked) please.
100 to 1000 nM

Quote IC50 reported for CC1(c2ccc(NC(=O)OCc3ccc4c(c3)C(=O)N(C3CCC(=O)NC3=O)C4)nc2)CC1 (centres unmarked) please.
100 to 1000 nM

Quote IC50 reported for O=C1CCC(N2Cc3ccc(COC(=O)NC4CN(c5ccccc5)C4)cc3C2=O)C(=O)N1 (centres unmarked) please.
< 100 nM
